The entries below are paired with their reported log10(TGI).
- Test system: PC-3 prostate
- assayMethodText: NCI tumour cell line growth inhibition, 48 h
Transform log10 | Measure TGI | Unit µM

Some entries whose results are on file:
> print(dat)
                                    compound  assaymetric  reading
 1  C#Cc1ccc(-n2c(/C=C/c3ccc(C(F)(F)F)cc3)nc3ncccc3c2=O)cc1   log10(TGI)     0.80
 2  O=[N+]([O-])/C(C(Cl)=C(Cl)Cl)=C(\SCc1ccccc1)N1CCCCC1   log10(TGI)     1.87
 3  OCc1ccc(N2CCC2c2ccc(F)cc2)cc1Cl (stereo not drawn)   log10(TGI)     1.83
 4          Cc1cc(I)cc(CN(C)CCCCN2CCCCC2)c1O   log10(TGI)     1.51
 5  O=C1/C(=C/c2cccc([N+](=O)[O-])c2)COc2ccc(O)cc21   log10(TGI)     0.74
 6           CCCN=C1CCN(Cc2ccccc2)c2ccccc2N1   log10(TGI)     1.78
 7     Cn1c2ccccc2c2c(Nc3ccccc3)c3ccccc3nc21   log10(TGI)     1.68
 8  O=S(=O)(NC1=NCCN1C(=S)SN1CCn2c1nsc2=S)c1ccc(OC(F)(F)F)cc1   log10(TGI)     1.57
 9  CC/C=C\CCC/C=C1/C(=O)C=C[C@@H]1C/C=C\CCCC(=O)OC   log10(TGI)     0.91
10  Clc1ccc2c(NCCCCNc3nc(N4CCCCC4)nc4ccccc34)ccnc2c1   log10(TGI)     1.16

Entry CC1=C(C(=O)Nc2ccc(Cl)c(Cl)c2)C(c2cccc(Oc3ccccc3)c2)NC(=S)N1 (stereo not drawn) ; log10(TGI) = 1.46

GET /value?item= Cc1nc2ccccc2c(N)c1-c1cc(C)c2c(C)nc3ccccc3c2n1 &field=log10(TGI) returns 0.49

Recorded log10(TGI) (compound Cc1c2cnccc2c(C)c2c1c1ccccc1n2CCCN ): -0.19

* * *

- Test system: UACC-257 melanoma
- assayMethodText: NCI tumour cell line growth inhibition, 48 h
So basically, the class depends on measured TGI, and the ranges are bottom bin = under 10 µM, middle bin = from 10 µM up to 40 µM, top bin = 40 µM and over

compound	labelClass
C[C@]12CC[C@H](O)CC1=CC[C@@H]1C2CC[C@]2(C)C(=O)N(N)C(=O)CC12 (stereo not given in full)	top bin
CC(C)C1/C(=N/O)CC(c2ccccc2)N(N=O)C1c1ccccc1 (stereo not given)	top bin
Brc1ccc(N=c2nc3ccccn3n3nc(-c4ccccc4)cc23)cc1	top bin

Ask: Kindly identify the class of O=C1/C(=C/c2cccc([N+](=O)[O-])c2)COc2ccc(O)cc21 .
Result: bottom bin

Ask: Using the reported TGI, which band applies to Cn1cnc([N+](=O)[O-])c1Sc1nnc(-c2cccnc2)n1C ?
Result: middle bin

Ask: Class for COc1cc(Cc2cnc(/N=C3\C(=O)N(CN4CCN(c5c(F)cc6c(=O)c(C(=O)O)cn(C7CC7)c6c5OC)CC4C)c4ccc(F)cc43)nc2N)cc(OC)c1OC (stereo not given) ?
Result: top bin

Ask: Form field 'band' for NC(Cc1c[nH]c2c(O)cccc12)C(=O)O (stereo not given)
Result: top bin

Ask: Which band does O=C(Nc1ccccc1OC(F)(F)F)Nc1n[nH]c2ccccc12 fall in?
Result: top bin

* * *

- Test system: HCT-116 colon
- assayMethodText: NCI tumour cell line growth inhibition, 48 h; in the data active = GI50 below about 0.43 µM; inactive = the rest
Where a SMILES comes first, the peptide text is derived from it. [ ]: non-standard residue; d: D form. The star is where a group is joined. ξ: configuration not given here. X6 = FC(F)(F)c1cc(NC(=S)*)cc(C(F)(F)F)c1; ξF = NC(Cc1ccccc1)C(=O)O
Reply using exactly one outcome from True for active, False for inactive

Record excerpt, results attached:
molecule	labelClass
NC(=O)c1sc(-n2cnc3ccccc32)cc1OCc1ccccc1Br	False
Cc1ccc2c(=O)cc(-c3ccc(F)cc3)[nH]c2n1	False
CSc1nc2c(c(=O)[nH]1)N=C1c3ccccc3C(=O)C1C(c1ccccc1)N2 (centres undefined)	False
O=C(/C=C/C12c3ccccc3C(c3ccccc31)C1C(=O)NC(=O)C12)c1ccncc1 (centres undefined)	False
COc1cc(-c2nn(-c3ccc(NC(=O)c4ccc(Cl)c(C(F)(F)F)c4)cc3)cc2-c2ccncc2)ccc1Cl	False
COC(=O)[C@@H](NC(=O)CNC(=O)[C@H]1CCCN1C(=O)C(Cc1ccccc1)NC(=S)Nc1cc(C(F)(F)F)cc(C(F)(F)F)c1)C(C)C (some centres undefined) (X6-[ξF][dP]GV-OMe)	False
COc1ccc(-c2nc3sccn3c2/C(N)=N/C(=N)N)cc1OC	False
Clc1ccc2c(NCCCCNc3nc(N4CCCCC4)nc4ccccc34)ccnc2c1	False

Ask: Entry COc1ccc2c(C3=C(c4cn(C)c5ccccc45)C(=O)NC3=O)cn(C)c2c1 : call = ?
Result: True

* * *

- System: RXF 393 renal
- assayMethodText: NCI tumour cell line growth inhibition, 48 h
assayMetric: TGI

> print(dat)
                                   compound   reading
1  C=C(Br)C(C)(Cl)CCC(Br)C(C)(C)Cl (configuration not stated)   65.1 µM
2  CN1C(=O)C(C)(C)C2(SC(C)(C)C2(C)C)N(C)C1=S (configuration not stated)  > 100 µM
3  C#Cc1ccc(-n2c(/C=C/c3ccc(C(F)(F)F)cc3)nc3ncccc3c2=O)cc1   3.79 µM
4  N#CC1C(C#N)C2(c3ccccc3)C(c3ccccc3)=NN(c3ccccc3)CC12 (configuration not stated)  > 100 µM
5  O=C(O)CN(CC(=O)O)C1CCCCC1N(CC(=O)O)CC(=O)NCCN=C=S (configuration not stated)  > 100 µM
6  CSc1nc2c(c(=O)[nH]1)N=C1c3ccccc3C(=O)C1C(c1ccccc1)N2 (configuration not stated)  > 100 µM
7  O=C1c2ccccc2C2C1N2C(=O)C(F)(F)F (configuration not stated)  > 100 µM
8  O=c1[nH][nH]c(=O)n1Cc1ccccc1Cn1c(=O)[nH][nH]c1=O  > 100 µM

Result for O=C([O-])CC(=O)[O-].O=C([O-])CC(=O)[O-].[K+].[Pd+2] , tested on RXF 393 renal, TGI: > 100 µM

RXF 393 renal TGI of O=C1/C(=C/c2ccccc2)CN(C(=O)C(Cl)(Cl)Cl)C/C1=C\c1ccccc1 is 4.02 µM

Tested on RXF 393 renal: COc1ccc(CNc2nc(NCc3ccc(OC)c(OC)c3)nc(NC3CCCCC3)n2)cc1 . Observed TGI: 6.22 µM

Query O=C1CCC(=O)N1n1c(Cc2ccccc2)n[nH]c1=O on RXF 393 renal; TGI returned: > 100 µM

* * *

List of TGI values.
- System: EKVX NSCLC
- assayMethodText: NCI tumour cell line growth inhibition, 48 h

Reference set (5 entries):
> print(dat)
                                   molecule  assaymetric   reading
1  O=S1(=O)NC(=NCc2c[nH]c3ccccc23)N(c2ccccc2)c2ccncc21          TGI  > 100 µM
2  Cc1ccccc1-n1c(=O)c2ncn(CCCl)c2n(-c2ccccc2C)c1=S          TGI  > 100 µM
3  O=C(Nc1ccccc1)NS(=O)(=O)c1ccc(-n2nc3c(c2-c2cccs2)Cc2ccccc2-3)cc1          TGI   87.2 µM
4  CCC1(O)CC2CC(=O)OC2C1O (stereo unspecified)          TGI  > 100 µM
5    CC(=O)NC1=C(NCCC(C)C)C(=O)c2ccccc2C1=O          TGI   > 50 µM

Record COc1ccc2c(=O)c(O)c(-c3ccc(OC)c(OC)c3)oc2c1 . Reported TGI: > 100 µM

* * *

- System: SW-620 colon
- assayMethodText: NCI tumour cell line growth inhibition, 48 h
assayMetric: TGI

Consider the worked cases shown below.
> print(dat)
                                   molecule    testsystem    reading
1  COc1ccc2c3c1C(=O)CCCC3CO2 (stereo not given)  SW-620 colon   > 100 µM
2  COC1CCC2C(NS(=O)(=O)c3ccc(C)cc3)CCCC2O1 (stereo not given) (tested in a mixture with another compound)  SW-620 colon  > 34.5 µM
3     Cn1c2ccccc2c2c(Nc3ccccc3)c3ccccc3nc21  SW-620 colon    58.3 µM
4  COc1ccc(C(OCC2OC(n3cc(C)c(=O)[nH]c3=O)CC2n2cc(Cn3cc(I)c(=O)[nH]c3=O)nn2)(c2ccccc2)c2ccccc2)cc1 (stereo not given)  SW-620 colon   > 100 µM
5  N=c1n(C(=O)N2CCCC2)c2cc(Cl)ccc2n1C1=NCCN1  SW-620 colon   > 100 µM

TGI for C(/c1ccco1)=c1/nc(-c2ccccc2)n2c1nc1ccccc12 is > 100 µM

TGI measured on Cc1cn(C2CC(n3cc(Cn4cc(I)c(=O)[nH]c4=O)nn3)C(CO)O2)c(=O)[nH]c1=O (stereo not given) = > 100 µM

# molecule Cc1cc(O)c2c(=O)c3ccccc3[nH]c2c1 ; its TGI = > 100 µM

Memo: Cc1ccc(C(=O)/C(=C/c2ccc([N+](=O)[O-])cc2)SCc2ccc(Cl)cc2)cc1 , reported TGI: 0.523 µM
